- target-desc: T1, Pep-A, 32-mer peptide derived from HIV-1 reverse transcriptase
- T1 construct: also called peptide A
- run-description: intrinsic Trp fluorescence titration of 1 µM Pep-2
*1 amine or outer side, *2 acyl side, *3 side chain or, on linkers, in order; H or OH if unused. Cysteamide = C(CS[*:3])N[*:1]
measured-endpoint: Kd

Form field Kd, entry Ac-KETWWETWWTEWSQPKKKRKV-Cysteamide (Synthetic 21-residue peptide: Trp-rich hydrophobic domain, Ser-Gln-Pro spacer, and a Lys-rich domain derived from the SV40 large T antigen NLS; also called Pep-2-cya; peptide vector) [Pep-2 (KETWWETWWTEWSQPKKKRKV-cya)] : ~120 nM
